# TESTED TARGET: Tsr (thiostrepton resistance methyltransferase) (Streptomyces azureus)
# TEST METHOD NOTES: isothermal titration calorimetry, single-set-of-sites fit
pKd: −log10 of the molar value.
MEASURED ATTRIBUTE: pKd

COMPOUND: Nc1ncnc2c1ncn2[C@@H]1O[C@H](CSCC[C@H](N)C(=O)O)[C@@H](O)[C@H]1O
MEASURED ATTRIBUTE: pKd
NUMERIC RESULT: 4.61

COMPOUND: C[S+](CC[C@H](N)C(=O)O)C[C@H]1O[C@@H](n2cnc3c(N)ncnc32)[C@H](O)[C@@H]1O (some centres unmarked)
MEASURED ATTRIBUTE: pKd
NUMERIC RESULT: 3.97

These data points were gathered from paper PMC4661090.
